These entries and their values trace back to ChEMBL document CHEMBL5291721.

Can you tell me AC50 for the items I'm about to list?
Target: Vascular endothelial growth factor receptor 2 (Homo sapiens, UniProt P35968); also: assay procedure not described here
Sequence (P35968 whole entry): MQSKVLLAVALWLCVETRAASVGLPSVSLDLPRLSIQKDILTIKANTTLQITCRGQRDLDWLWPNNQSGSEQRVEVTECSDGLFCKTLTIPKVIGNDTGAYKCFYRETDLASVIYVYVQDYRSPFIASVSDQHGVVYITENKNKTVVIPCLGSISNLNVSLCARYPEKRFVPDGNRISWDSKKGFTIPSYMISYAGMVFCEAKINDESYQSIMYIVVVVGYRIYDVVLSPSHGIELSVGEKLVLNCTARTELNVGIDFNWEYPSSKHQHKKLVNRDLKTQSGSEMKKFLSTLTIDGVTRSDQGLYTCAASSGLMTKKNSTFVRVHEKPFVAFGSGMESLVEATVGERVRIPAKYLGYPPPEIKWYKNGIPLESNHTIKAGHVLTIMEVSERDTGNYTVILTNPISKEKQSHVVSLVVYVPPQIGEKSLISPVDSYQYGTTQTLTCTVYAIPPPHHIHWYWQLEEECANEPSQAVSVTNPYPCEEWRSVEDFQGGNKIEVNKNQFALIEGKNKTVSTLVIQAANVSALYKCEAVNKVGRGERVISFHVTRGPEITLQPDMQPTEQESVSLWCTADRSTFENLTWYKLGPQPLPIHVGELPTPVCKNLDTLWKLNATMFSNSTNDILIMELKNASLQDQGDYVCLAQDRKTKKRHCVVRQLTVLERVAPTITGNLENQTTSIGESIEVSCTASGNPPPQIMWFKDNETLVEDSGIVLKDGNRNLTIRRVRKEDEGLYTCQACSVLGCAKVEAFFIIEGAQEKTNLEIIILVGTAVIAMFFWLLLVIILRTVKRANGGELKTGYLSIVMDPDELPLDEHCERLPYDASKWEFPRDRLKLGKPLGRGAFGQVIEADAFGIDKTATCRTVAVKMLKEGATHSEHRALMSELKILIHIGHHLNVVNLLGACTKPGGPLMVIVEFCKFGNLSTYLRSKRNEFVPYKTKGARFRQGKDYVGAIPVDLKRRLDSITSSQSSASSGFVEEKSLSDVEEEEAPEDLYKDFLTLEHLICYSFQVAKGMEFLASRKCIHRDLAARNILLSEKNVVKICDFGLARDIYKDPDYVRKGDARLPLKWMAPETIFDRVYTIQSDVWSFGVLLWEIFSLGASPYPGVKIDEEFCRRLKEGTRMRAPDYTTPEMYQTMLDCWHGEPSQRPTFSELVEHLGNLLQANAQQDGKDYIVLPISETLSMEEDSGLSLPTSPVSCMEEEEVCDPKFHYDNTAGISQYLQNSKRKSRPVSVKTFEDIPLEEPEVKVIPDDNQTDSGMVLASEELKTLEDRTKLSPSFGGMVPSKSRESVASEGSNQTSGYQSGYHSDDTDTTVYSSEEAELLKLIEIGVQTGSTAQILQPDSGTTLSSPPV
Format: functional
Answers are plain numbers, in µM.

// AC50 value for `CC[C@@H]1C[C@]1(NC(=O)[C@@H]1C[C@@H]2CN1C(=O)[C@H](C(C)(C)C)NC(=O)OCC(C)(C)CCCCc1cccc3c1CN(C3)C(=O)O2)C(=O)NS(=O)(=O)C1CC1` : 16.3

Further cases:
// AC50 value for `C=CC(=O)Nc1cccc(Oc2nc(Nc3ccc(N4CCN(C)CC4)cc3)nc3ccsc23)c1` : 2.06

###

The molecules below have reported AC50 for Mu-type opioid receptor (Homo sapiens, UniProt P35372).

# example entries with known answers
// AC50 value for `Cc1nc(Nc2ncc(C(=O)Nc3c(C)cccc3Cl)s2)cc(N2CCN(CCO)CC2)n1` : > 30 µM

// AC50 value for CCC1(c2ccc(N)cc2)CCC(=O)NC1=O (configuration not stated) [AMINOGLUTETHIMIDE] : > 30 µM

// AC50 value for `CCC(=O)O[C@](Cc1ccccc1)(c1ccccc1)[C@H](C)CN(C)C` : 0.693 µM

Batch request: AC50 per item, same order as input.
1. CCC[C@@H]1C[C@@H](C(=O)N[C@@H]([C@H]2O[C@H](SC)[C@H](O)[C@@H](O)[C@H]2O)[C@@H](C)O)N(C)C1
2. CCOC(=O)c1ccc(C#Cc2ccc3c(c2)C(C)(C)CCS3)nc1
3. O=C(/C=C/c1cccc(S(=O)(=O)Nc2ccccc2)c1)NO
4. CC(C)(Oc1ccc(CCNC(=O)c2ccc(Cl)cc2)cc1)C(=O)O [BEZAFIBRATE]
5. CC(=O)O[C@]1(C(C)=O)CC[C@H]2[C@@H]3C=C(Cl)C4=CC(=O)[C@@H]5C[C@@H]5[C@]4(C)[C@H]3CC[C@@]21C [CYPROTERONE ACETATE]
6. Cc1onc(-c2c(F)cccc2Cl)c1C(=O)N[C@@H]1C(=O)N2[C@@H]1SC(C)(C)[C@@H]2C(=O)O

["> 30 µM", "> 30 µM", "> 30 µM", "> 30 µM", "> 30 µM", "> 30 µM"]

Batch request: AC50 per item, same order as input.
1. O=C1Nc2ccc(Cl)cc2C(c2ccccc2Cl)=NC1O (configuration not stated)
2. Cc1nnc(SCC2=C(C(=O)O)N3C(=O)[C@@H](NC(=O)Cn4cnnn4)[C@H]3SC2)s1
3. CCCC(C)(COC(N)=O)COC(N)=O [MEPROBAMATE]

["> 30 µM", "> 300 µM", "> 30 µM"]

###

Target: Receptor tyrosine-protein kinase erbB-2 (Homo sapiens, UniProt P04626); also: assay procedure not described here
Sequence (P04626 whole entry): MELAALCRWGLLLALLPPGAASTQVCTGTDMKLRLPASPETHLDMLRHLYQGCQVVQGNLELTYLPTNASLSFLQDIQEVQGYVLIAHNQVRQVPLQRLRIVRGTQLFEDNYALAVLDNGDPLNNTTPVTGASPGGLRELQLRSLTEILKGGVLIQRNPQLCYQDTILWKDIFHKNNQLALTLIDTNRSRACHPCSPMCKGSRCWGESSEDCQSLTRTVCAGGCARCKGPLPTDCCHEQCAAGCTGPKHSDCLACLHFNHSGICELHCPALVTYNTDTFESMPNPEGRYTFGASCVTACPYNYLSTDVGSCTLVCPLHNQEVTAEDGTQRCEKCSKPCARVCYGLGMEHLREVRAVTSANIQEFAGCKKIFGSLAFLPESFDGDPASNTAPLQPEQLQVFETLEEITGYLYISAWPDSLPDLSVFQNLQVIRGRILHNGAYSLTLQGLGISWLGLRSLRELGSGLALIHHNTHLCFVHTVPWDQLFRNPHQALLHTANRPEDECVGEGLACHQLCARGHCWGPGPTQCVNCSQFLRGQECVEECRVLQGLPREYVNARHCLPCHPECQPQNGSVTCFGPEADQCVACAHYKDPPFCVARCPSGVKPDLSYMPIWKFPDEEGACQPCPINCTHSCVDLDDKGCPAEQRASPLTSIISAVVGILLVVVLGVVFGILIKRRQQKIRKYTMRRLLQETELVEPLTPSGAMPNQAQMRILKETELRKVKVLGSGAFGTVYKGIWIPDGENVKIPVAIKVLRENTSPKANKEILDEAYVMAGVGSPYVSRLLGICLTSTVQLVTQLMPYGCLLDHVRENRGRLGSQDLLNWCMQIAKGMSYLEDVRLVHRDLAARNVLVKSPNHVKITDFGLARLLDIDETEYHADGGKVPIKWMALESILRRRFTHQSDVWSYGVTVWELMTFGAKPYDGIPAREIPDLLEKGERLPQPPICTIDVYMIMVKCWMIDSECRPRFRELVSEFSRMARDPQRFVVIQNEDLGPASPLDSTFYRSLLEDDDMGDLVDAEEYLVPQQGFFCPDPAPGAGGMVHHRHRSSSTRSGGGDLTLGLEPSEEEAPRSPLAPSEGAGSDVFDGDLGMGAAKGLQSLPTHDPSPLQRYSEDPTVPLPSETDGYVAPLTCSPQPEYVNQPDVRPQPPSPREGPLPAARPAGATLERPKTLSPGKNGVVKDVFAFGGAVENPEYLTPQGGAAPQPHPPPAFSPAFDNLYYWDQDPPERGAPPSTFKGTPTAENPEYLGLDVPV
Assay type: functional
RECORDED ENDPOINT: AC50

Field AC50 (Receptor tyrosine-protein kinase erbB-2 (Homo sapiens, UniProt P04626)), entry `S=P(N1CC1)(N1CC1)N1CC1` : > 30 µM

Batch request: AC50 per item, same order as input.
1. Cc1nnc(SCC2=C(C(=O)O)N3C(=O)[C@@H](NC(=O)Cn4cnnn4)[C@H]3SC2)s1
2. Cc1onc(-c2c(F)cccc2Cl)c1C(=O)N[C@@H]1C(=O)N2[C@@H]1SC(C)(C)[C@@H]2C(=O)O
3. Clc1ccc(Cn2c(CN3CCCC3)nc3ccccc32)cc1
4. CCOc1cc([C@@H](CS(C)(=O)=O)N2C(=O)c3cccc(NC(C)=O)c3C2=O)ccc1OC

["> 300 µM", "> 30 µM", "> 30 µM", "> 30 µM"]

Field AC50 (Receptor tyrosine-protein kinase erbB-2 (Homo sapiens, UniProt P04626)), entry `CC(C)(O/N=C(\C(=O)N[C@@H]1C(=O)N2C(C(=O)[O-])=C(C[n+]3ccccc3)CS[C@H]12)c1csc(N)n1)C(=O)O` : > 300 µM
